# credit: PubChem BioAssay (NCI)

Experimental Protocol: NCI Yeast Anticancer Drug Screen. Data for the bub3 strain (AID 167)
Particulars: S. cerevisiae bub3 mutant strain, at 50.0 µM
The panel holds about 79,000 compounds, 15% with a hit somewhere; the sample as a whole holds those more often. Calls of active or inactive are those of the source. No stated cut-off is given here; in the data, active means growth inhibition above about 70%; inactive means the rest.
Outcome codes: 1 (yes) = active, 0 (no) = inactive

[
  {
    "Compound": "Cc1cc(N(CCCl)CCCl)ccc1C=Nc1ccc(-c2csc(Cc3ccccc3)n2)c(Cl)c1",
    "Qualitative Label": "1 (yes)"
  },
  {
    "Compound": "O=C([O-])C[SH2+].[Co+3].[NH-]CC[NH-].[NH-]CC[NH-].[O-][Cl+3]([O-])([O-])O",
    "Qualitative Label": "0 (no)"
  },
  {
    "Compound": "CCN1CC2(CO)CCC(OC)C34C5CC6C(OC)CC(O)(C5C6OC)C(O)(C(OC)C23)C14 (stereo unspecified)",
    "Qualitative Label": "0 (no)"
  },
  {
    "Compound": "COc1cc2c[n+](C)c3c4cc5c(cc4ccc3c2cc1OC)OCO5",
    "Qualitative Label": "0 (no)"
  },
  {
    "Compound": "O=c1oc2ccccc2c(O)c1C(C/C(CCN1CCCC1)=N/O)c1ccccc1 (stereo unspecified)",
    "Qualitative Label": "1 (yes)"
  },
  {
    "Compound": "C=C(C)CC1(CC)C(=O)NC(=S)NC1=O",
    "Qualitative Label": "0 (no)"
  },
  {
    "Compound": "CC(C)CCC1(CC[N+](C)(C)C)C(=O)NC(=O)NC1=O",
    "Qualitative Label": "0 (no)"
  },
  {
    "Compound": "O=[As](O)(O)c1ccc(F)cc1",
    "Qualitative Label": "0 (no)"
  },
  {
    "Compound": "C(=Nc1ccccc1)C1CCCC[N-]1.C(=Nc1ccccc1)C1CCCC[N-]1.[Cu+2].[O-][Cl+3]([O-])([O-])O (stereo unspecified)",
    "Qualitative Label": "1 (yes)"
  },
  {
    "Compound": "N#Cc1ccc(NN=O)cc1",
    "Qualitative Label": "0 (no)"
  },
  {
    "Compound": "CCOC(=O)[C]1([Pb]([CH3])([CH3])[CH3])N=NC(C(=O)OC)=C1C(=O)OC (stereo unspecified)",
    "Qualitative Label": "0 (no)"
  },
  {
    "Compound": "COC(=O)C[CH2][Sn]([CH2]CC(=O)OC)([c]1ccccc1)[c]1ccccc1",
    "Qualitative Label": "0 (no)"
  },
  {
    "Compound": "O=C1[O][Hg][c]2c1cccc2[N+](=O)[O-]",
    "Qualitative Label": "1 (yes)"
  },
  {
    "Compound": "N#CC(C#N)=Cc1ccc(Cl)o1",
    "Qualitative Label": "0 (no)"
  },
  {
    "Compound": "[C-]#[N+]C1CCCCC1.[C-]#[N+]C1CCCCC1.[Ni].[S-]c1ccccc1.[S-]c1ccccc1",
    "Qualitative Label": "0 (no)"
  },
  {
    "Compound": "COc1ccc2c(c1)CC(CN1CCC3(CC1)C(=O)NCN3c1ccccc1)O2 (stereo unspecified)",
    "Qualitative Label": "0 (no)"
  },
  {
    "Compound": "CCNC(=S)S",
    "Qualitative Label": "0 (no)"
  },
  {
    "Compound": "ClCCN(CCCl)CCN1c2ccc3ccccc3c2Sc2ccc3ccccc3c21",
    "Qualitative Label": "0 (no)"
  },
  {
    "Compound": "O=C(CBr)Nc1ccccc1",
    "Qualitative Label": "1 (yes)"
  },
  {
    "Compound": "C=C[CH2][Sn]([CH3])([CH3])[CH2]C=C",
    "Qualitative Label": "0 (no)"
  },
  {
    "Compound": "C=COC(=O)NC(C(=O)O)C(C)CC (stereo unspecified)",
    "Qualitative Label": "0 (no)"
  },
  {
    "Compound": "COc1cc(C(CC(C)=O)c2cc3c(cc2OC(C)=O)OCO3)cc(OC)c1OC (stereo unspecified)",
    "Qualitative Label": "0 (no)"
  },
  {
    "Compound": "CC1(C)N=C(N)N=C(N)N1c1ccc(Cl)c(CCCCc2ccc(S(=O)(=O)F)cc2)c1",
    "Qualitative Label": "1 (yes)"
  },
  {
    "Compound": "CCCCCCCCCCCCCCCCCCC[As](=O)(O)CCCCCCCCCCCCCCCCCCC",
    "Qualitative Label": "0 (no)"
  },
  {
    "Compound": "C/C=C1/CN2CCC34C(=C(C(=O)OC)C1CC23)Nc1ccc(O)cc14 (stereo unspecified)",
    "Qualitative Label": "0 (no)"
  },
  {
    "Compound": "CCC1(CC(C)O)C(=O)NC(=O)NC1=O (stereo unspecified)",
    "Qualitative Label": "0 (no)"
  },
  {
    "Compound": "Oc1c(I)cc(I)cc1I",
    "Qualitative Label": "0 (no)"
  },
  {
    "Compound": "CCCCCCCCCCCCCCCCCC[N+](C)(C)C (tested in a mixture with another compound)",
    "Qualitative Label": "0 (no)"
  },
  {
    "Compound": "C[N+](C)(C)CC1Cc2ccccc2C1=O (stereo unspecified)",
    "Qualitative Label": "1 (yes)"
  },
  {
    "Compound": "CCC1CN2CCC3(C(=O)Nc4ccccc43)C2CC1/C(=C/OC)C(=O)OC (stereo unspecified)",
    "Qualitative Label": "0 (no)"
  },
  {
    "Compound": "NC(=Nc1ccccc1)N/N=C/c1c[nH]c2ccccc12",
    "Qualitative Label": "0 (no)"
  },
  {
    "Compound": "CCCCCCOC(=O)C(N)Cc1ccc(OC)c(N(CCCl)CCCl)c1 (stereo unspecified)",
    "Qualitative Label": "0 (no)"
  },
  {
    "Compound": "NC(=O)C(CCN1CCCCC1)(c1ccccc1)c1ccccc1",
    "Qualitative Label": "0 (no)"
  },
  {
    "Compound": "Cc1cc(C)n(SC(Cl)(Cl)Cl)n1",
    "Qualitative Label": "0 (no)"
  },
  {
    "Compound": "CCCOC(=O)c1cncn1C(C)c1ccccc1 (stereo unspecified)",
    "Qualitative Label": "0 (no)"
  },
  {
    "Compound": "Cc1ccc2n[se]nc2c1",
    "Qualitative Label": "0 (no)"
  }
]
